Reference source for all entries: ChEMBL document CHEMBL1152855

System: LOX IMVI
Experiment: Growth inhibition of human LOXIMVI cells at 10 uM after 48 hrs by sulforhodamine B assay
Format: functional
Settings: values are per cent of control
Reported growth, % of control at 10 µM values follow for various compounds

| Structure Smiles String | growth, % of control at 10 µM / % |
| --- | --- |
| [3H]N1C(=O)[C@@]2(c3ccccc31)N(C)C[C@@H](c1ccc(OC)cc1)[C@@]21Cc2ccccc2C1=O | 80.5 |
| [3H]N1C(=O)[C@@]2(c3ccccc31)N(C)C[C@@H](c1ccc(Cl)cc1)[C@@]21Cc2ccccc2C1=O | 65.2 |
| [3H]C([3H])([3H])N1C(=O)[C@@]2(c3ccccc31)N(C)C[C@@H](c1ccc(Cl)cc1)[C@@]21Cc2ccccc2C1=O | 72.2 |
| [3H]N1C(=O)[C@@]2(c3ccccc31)N(C)C[C@@H](c1cccs1)[C@@]21Cc2ccccc2C1=O | 80 |
| [3H]C([3H])([3H])N1C(=O)[C@@]2(c3ccccc31)N(C)C[C@@H](c1cccs1)[C@@]21Cc2ccccc2C1=O | 85.3 |
| [3H]C([3H])([3H])N1C(=O)[C@@]2(c3ccccc31)N(C)C[C@@H](c1ccc(OC)cc1)[C@@]21Cc2ccccc2C1=O | 78.5 |

---

Quick reference for growth, % of control at 10 µM among some compounds
Tested on: Malme-3M
Experiment: Growth inhibition of human MALME-3M cells at 10 uM after 48 hrs by sulforhodamine B assay
Assay type: functional
Conditions: values are per cent of control

| Structure Smiles String | System Under Test | growth, % of control at 10 µM, % |
| --- | --- | --- |
| [3H]N1C(=O)[C@@]2(c3ccccc31)N(C)C[C@@H](c1ccc(Cl)cc1)[C@@]21Cc2ccccc2C1=O | Malme-3M | 120 |
| [3H]N1C(=O)[C@@]2(c3ccccc31)N(C)C[C@@H](c1cccs1)[C@@]21Cc2ccccc2C1=O | Malme-3M | 93.5 |
| [3H]C([3H])([3H])N1C(=O)[C@@]2(c3ccccc31)N(C)C[C@@H](c1ccc(Cl)cc1)[C@@]21Cc2ccccc2C1=O | Malme-3M | 102 |
| [3H]N1C(=O)[C@@]2(c3ccccc31)N(C)C[C@@H](c1ccc(OC)cc1)[C@@]21Cc2ccccc2C1=O | Malme-3M | 132 |
| [3H]C([3H])([3H])N1C(=O)[C@@]2(c3ccccc31)N(C)C[C@@H](c1cccs1)[C@@]21Cc2ccccc2C1=O | Malme-3M | 123 |
| [3H]C([3H])([3H])N1C(=O)[C@@]2(c3ccccc31)N(C)C[C@@H](c1ccc(OC)cc1)[C@@]21Cc2ccccc2C1=O | Malme-3M | 104 |

---

Tested on: SNB-19
Assay: Growth inhibition of human SNB19 cells at 10 uM after 48 hrs by sulforhodamine B assay
Type: functional
Details: SNB-19, 48 h, values are per cent of control

| Structure Smiles String | growth, % of control at 10 µM, % |
| --- | --- |
| [3H]C([3H])([3H])N1C(=O)[C@@]2(c3ccccc31)N(C)C[C@@H](c1ccc(Cl)cc1)[C@@]21Cc2ccccc2C1=O | 89.9 |
| [3H]N1C(=O)[C@@]2(c3ccccc31)N(C)C[C@@H](c1ccc(Cl)cc1)[C@@]21Cc2ccccc2C1=O | 89.9 |
| [3H]N1C(=O)[C@@]2(c3ccccc31)N(C)C[C@@H](c1ccc(OC)cc1)[C@@]21Cc2ccccc2C1=O | 92.2 |
| [3H]C([3H])([3H])N1C(=O)[C@@]2(c3ccccc31)N(C)C[C@@H](c1cccs1)[C@@]21Cc2ccccc2C1=O | 96.2 |
| [3H]C([3H])([3H])N1C(=O)[C@@]2(c3ccccc31)N(C)C[C@@H](c1ccc(OC)cc1)[C@@]21Cc2ccccc2C1=O | 94.1 |
| [3H]N1C(=O)[C@@]2(c3ccccc31)N(C)C[C@@H](c1cccs1)[C@@]21Cc2ccccc2C1=O | 99.8 |

---

Test system: UACC-62
Assay: Growth inhibition of human UACC62 cells at 10 uM after 48 hrs by sulforhodamine B assay
Format: functional
Settings: UACC-62, 48 h, values are per cent of control

| Structure Smiles String | growth, % of control at 10 µM (%) |
| --- | --- |
| [3H]C([3H])([3H])N1C(=O)[C@@]2(c3ccccc31)N(C)C[C@@H](c1ccc(OC)cc1)[C@@]21Cc2ccccc2C1=O | 63.1 |
| [3H]N1C(=O)[C@@]2(c3ccccc31)N(C)C[C@@H](c1ccc(OC)cc1)[C@@]21Cc2ccccc2C1=O | 71.8 |
| [3H]N1C(=O)[C@@]2(c3ccccc31)N(C)C[C@@H](c1ccc(Cl)cc1)[C@@]21Cc2ccccc2C1=O | 45.8 |
| [3H]N1C(=O)[C@@]2(c3ccccc31)N(C)C[C@@H](c1cccs1)[C@@]21Cc2ccccc2C1=O | 82 |
| [3H]C([3H])([3H])N1C(=O)[C@@]2(c3ccccc31)N(C)C[C@@H](c1ccc(Cl)cc1)[C@@]21Cc2ccccc2C1=O | 48.4 |
| [3H]C([3H])([3H])N1C(=O)[C@@]2(c3ccccc31)N(C)C[C@@H](c1cccs1)[C@@]21Cc2ccccc2C1=O | 75.3 |

---

Tested on: MDA-MB-435
Experiment: Growth inhibition of human MDA-MB-435 cells at 10 uM after 48 hrs by sulforhodamine B assay
Type: functional
Details: MDA-MB-435, 48 h, values are per cent of control
# growth, % of control at 10 µM values compiled below
Measurement Name: growth, % of control at 10 µM (%)

| Structure Smiles String | Recorded Number |
| --- | --- |
| [3H]N1C(=O)[C@@]2(c3ccccc31)N(C)C[C@@H](c1cccs1)[C@@]21Cc2ccccc2C1=O | 115 |
| [3H]N1C(=O)[C@@]2(c3ccccc31)N(C)C[C@@H](c1ccc(Cl)cc1)[C@@]21Cc2ccccc2C1=O | 95.1 |
| [3H]C([3H])([3H])N1C(=O)[C@@]2(c3ccccc31)N(C)C[C@@H](c1ccc(OC)cc1)[C@@]21Cc2ccccc2C1=O | 101 |
| [3H]N1C(=O)[C@@]2(c3ccccc31)N(C)C[C@@H](c1ccc(OC)cc1)[C@@]21Cc2ccccc2C1=O | 124 |
| [3H]C([3H])([3H])N1C(=O)[C@@]2(c3ccccc31)N(C)C[C@@H](c1ccc(Cl)cc1)[C@@]21Cc2ccccc2C1=O | 101 |
| [3H]C([3H])([3H])N1C(=O)[C@@]2(c3ccccc31)N(C)C[C@@H](c1cccs1)[C@@]21Cc2ccccc2C1=O | 111 |

---

Tested on: M14
Assay: Growth inhibition of human M14 cells at 10 uM after 48 hrs by sulforhodamine B assay
Type: functional
Settings: M14, 48 h, values are per cent of control
Measurement Name: growth, % of control at 10 µM (%)

| Structure Smiles String | Measurement Name | Recorded Number |
| --- | --- | --- |
| [3H]C([3H])([3H])N1C(=O)[C@@]2(c3ccccc31)N(C)C[C@@H](c1ccc(OC)cc1)[C@@]21Cc2ccccc2C1=O | growth, % of control at 10 µM | 94.1 |
| [3H]N1C(=O)[C@@]2(c3ccccc31)N(C)C[C@@H](c1ccc(OC)cc1)[C@@]21Cc2ccccc2C1=O | growth, % of control at 10 µM | 97.5 |
| [3H]N1C(=O)[C@@]2(c3ccccc31)N(C)C[C@@H](c1ccc(Cl)cc1)[C@@]21Cc2ccccc2C1=O | growth, % of control at 10 µM | 82.9 |
| [3H]N1C(=O)[C@@]2(c3ccccc31)N(C)C[C@@H](c1cccs1)[C@@]21Cc2ccccc2C1=O | growth, % of control at 10 µM | 103 |
| [3H]C([3H])([3H])N1C(=O)[C@@]2(c3ccccc31)N(C)C[C@@H](c1ccc(Cl)cc1)[C@@]21Cc2ccccc2C1=O | growth, % of control at 10 µM | 76.6 |
| [3H]C([3H])([3H])N1C(=O)[C@@]2(c3ccccc31)N(C)C[C@@H](c1cccs1)[C@@]21Cc2ccccc2C1=O | growth, % of control at 10 µM | 104 |

---

System: BT-549
Assay: Growth inhibition of human BT549 cells at 10 uM after 48 hrs by sulforhodamine B assay
Type: functional
Conditions: BT-549, 48 h, values are per cent of control
Let's look at some compounds and their measured growth, % of control at 10 µM.

| Structure Smiles String | Measurement Units | growth, % of control at 10 µM |
| --- | --- | --- |
| [3H]C([3H])([3H])N1C(=O)[C@@]2(c3ccccc31)N(C)C[C@@H](c1ccc(OC)cc1)[C@@]21Cc2ccccc2C1=O | % | 101 |
| [3H]N1C(=O)[C@@]2(c3ccccc31)N(C)C[C@@H](c1ccc(OC)cc1)[C@@]21Cc2ccccc2C1=O | % | 118 |
| [3H]N1C(=O)[C@@]2(c3ccccc31)N(C)C[C@@H](c1ccc(Cl)cc1)[C@@]21Cc2ccccc2C1=O | % | 121 |
| [3H]N1C(=O)[C@@]2(c3ccccc31)N(C)C[C@@H](c1cccs1)[C@@]21Cc2ccccc2C1=O | % | 119 |
| [3H]C([3H])([3H])N1C(=O)[C@@]2(c3ccccc31)N(C)C[C@@H](c1ccc(Cl)cc1)[C@@]21Cc2ccccc2C1=O | % | 111 |
| [3H]C([3H])([3H])N1C(=O)[C@@]2(c3ccccc31)N(C)C[C@@H](c1cccs1)[C@@]21Cc2ccccc2C1=O | % | 131 |
